- assay_remarks: Cell viability assay (CellTiter 96 AQueous One, MTS)
- Type: cell-based, human
- applied_conditions: human, ARCaP Neo cells, 3 days, 50 μM H2O2, read-out: decrease in cell viability
property_measured: cytotoxicity at 3 days, 50 μM

>>> test_value("OO [H2O2, Hydrogen peroxide, reference compound]")
"~50%"
